# target: recombinant human BMPR-1A/ALK-3-Fc Chimera (R&D systems Catalog: 315-BR) (human) (UniProt P36894)
# Sequence (P36894 24-152 limits assumed, change not shown): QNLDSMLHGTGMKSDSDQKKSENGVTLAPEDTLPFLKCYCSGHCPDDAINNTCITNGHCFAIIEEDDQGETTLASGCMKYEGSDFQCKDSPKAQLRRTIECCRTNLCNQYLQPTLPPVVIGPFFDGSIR
# procedure-details: ELISA
# ELISA values compiled below

SC91.187 (antibody, V domains shown) VH: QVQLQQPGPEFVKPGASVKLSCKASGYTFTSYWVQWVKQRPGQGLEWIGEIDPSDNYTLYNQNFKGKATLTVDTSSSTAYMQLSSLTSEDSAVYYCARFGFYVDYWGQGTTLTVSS VL: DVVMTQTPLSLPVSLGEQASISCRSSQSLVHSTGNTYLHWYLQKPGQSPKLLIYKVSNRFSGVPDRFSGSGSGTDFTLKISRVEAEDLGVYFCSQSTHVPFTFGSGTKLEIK; 0.092
SC91.172 (antibody, V domains shown) VH: QVQLQQPGADLVKPGTSVKLSCKASGYTFTSYWMQWVKQRPGQGLEWIGEIDPSDTYTMYNQKFKGKATLTVDTSSSTAYMQLSSLTSEDSAVYYCARFGYYVDYWGQGTTLTVSS VL: DVVMTQTPLSLPVSLGDQASISCRSSQSLVHSTGNTYLHWYLQKAGQSPKLLIYKVSNRFSGVPDRFSGSGSGTDFTLKISRVEAEDLGVYFCSQSTHVPFTFGSGTKLEIK; 0.062
SC91.149 (antibody, V domains shown) VH: QVQLLQPGAELVKPGSSVKVSCKASGYTFTNYWMQWVKQRPGQGLEWIGEIDPSDTYTLYNQKFKGKATLTVDTSSSTAYMQLSSLTSEDSAVYYCARFGYYVDYWGQGTTLTVSS VL: DVVMTQTPLSLPVSLGDQASISCRSSQSLVHSTGNTYFHWYLQKPGQSPELLIYKVSNRFSGVPDRFRGSGSGTDFTLKISRVEAEDLGVYFCSQSTHVPFTFGSGTKLEIK; 0.066
SC91.160 (antibody, V domains shown) VH: QIQLVQSGPELKKPGETVKISCKASGYTFTTYGMNWVKQAPGKGLKWMGWINTYSGVPSSADDFKGRFAFSLETSASTAYLLINNLKNEDTATYFCARSELRNWYFDVWGTGTTVTVSS VL: SFVMTQTPKFLLVSAGDRVTITCKASQNMGHDVAWYQQKPGQSPKLLIYSASNRYTGVPDRFTGSGYGTDFTFTISTVQAEDLAVYFCQQDYSSPFTFGSGTKLEMK; 0.061
SC91.111 (antibody, V domains shown) VH: QIQLVQSGPELKKPGETVKISCKASGYTLTTYGMNWVKQAPGKGLKWMGWINTYSGVPAYADDFKGRFAFSLETSASTAYLQINNFKNEDTATYFCARSELRNWYFDVWGTGTTVTVSS VL: SFVMTQTPKFLLVSAGDRVTITCKASQNMGHNVAWYQQKPGQSPKLLIYYASNRYTGVPDRFTGSGYGTDFTFTISTVQAEDLAVYFCQQDYSSPFTFGSGTKLEIK; 0.077

Field: next binder
The binder listed as SC91.155 (antibody, V domains shown) VH: QIQLVQSGPELKKPGETVKISCKASGYTFTTYGMNWVKQAPGKGLKWMGWINSYSGVPAYADDFKGRFAFSLETFASTAYLQINNLRDEDTATYFCARSELRNWYFDVWGTGTTVTVSS VL: SFVMTQTPKFLLVSAGDRVTITCKASQNLGNDVAWYQQKPGQSPRLLIYFASNRYTGVPDRFTGSGYGTDFTFTISTVQAEDLAVYFCQQDYSSPFTFGSGTKLEIK has a reported ELISA of 0.059
